Experiment: Tested for its ability to antagonize epinephrine induced primary wave aggregation in human platelets at alpha-2A-adrenergic receptor sites.
endpoint: pIC50
Here pIC50 is given on a logarithmic scale as minus log10 of the concentration in mol/L.

Please review the entries below; each comes with its answer.
{"columns": ["molecule", "reported-result"],
 "data": [
  ["COC(c1cnc[nH]1)c1cccc2ccccc12 (stereo not given)", 3.42],
  ["OC(c1cnc[nH]1)c1cccc2ccccc12 (stereo not given)", 4.21],
  ["O=C(c1cnc[nH]1)c1cccc2ccccc12", 3.24]
]}

# ---- query molecule ----
What does the record list as pIC50 for c1ccc2c(Cc3cnc[nH]3)cccc2c1 ?
5.52
